Data provenance: patent US4666907A

Test system: sensitized guinea pig trachea
Test: Antigen challenge 'in vitro' assay (egg albumin-induced contraction of sensitized tracheal chains)
Format: cell-based
Details: Cavia porcellus; at 10 μg/ml; read-out: In Vitro Antigen Challenge % Inhibition
Binary call on inhibition at 10 µg/mL: yes (1) from 7% upward, no (0) beneath that.

INPUT: Is the recorded value of inhibition at 10 µg/mL equal to or greater than 7% for this compound? COc1ccc2c(c1Cl)Sc1ccccc1N2C [Compound 26]
OUTPUT: no (0)

INPUT: Is the recorded value of inhibition at 10 µg/mL equal to or greater than 7% for this compound? COc1ccc2c(c1Cl)Sc1ccccc1N2C(C)=O [Compound 22]
OUTPUT: yes (1)

INPUT: Is the recorded value of inhibition at 10 µg/mL equal to or greater than 7% for this compound? CC(C)C(=O)Oc1ccc2c(c1Cl)Sc1ccccc1N2 [Compound 20]
OUTPUT: yes (1)

INPUT: Is the recorded value of inhibition at 10 µg/mL equal to or greater than 7% for this compound? Oc1cccc2c1Nc1ccccc1S2 [Compound 18]
OUTPUT: no (0)

INPUT: Is the recorded value of inhibition at 10 µg/mL equal to or greater than 7% for this compound? Clc1ccc2c(c1)Sc1cc(Cl)ccc1N2 [Compound 14]
OUTPUT: no (0)

INPUT: Is the recorded value of inhibition at 10 µg/mL equal to or greater than 7% for this compound? Cc1cccc2c1Nc1ccccc1S2 [Compound 4]
OUTPUT: yes (1)

INPUT: Is the recorded value of inhibition at 10 µg/mL equal to or greater than 7% for this compound? CC(=O)c1ccc2c(c1)Nc1ccccc1S2 [Compound 8]
OUTPUT: yes (1)

INPUT: Is the recorded value of inhibition at 10 µg/mL equal to or greater than 7% for this compound? Oc1ccc2c(c1)Sc1ccccc1N2 [Compound 6]
OUTPUT: yes (1)
